Ref: PubChem BioAssay AID463165

Target: Regulator of G-protein signaling 4 (Homo sapiens) (UniProt P49798)
Sequence (P49798 whole entry, looked up): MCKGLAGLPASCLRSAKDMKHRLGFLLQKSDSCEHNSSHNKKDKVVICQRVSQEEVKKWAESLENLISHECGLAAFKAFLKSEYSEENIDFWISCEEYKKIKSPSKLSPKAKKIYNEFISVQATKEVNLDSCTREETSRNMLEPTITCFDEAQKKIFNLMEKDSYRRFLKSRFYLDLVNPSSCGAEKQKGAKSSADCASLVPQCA
Experiment: blockers of RGS4 function in M3R calcium signaling – cell-based, HEK293 M3R inducible RGS4, calcium flux, primary screen (AID 463165);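 also: RGS4 expression induced by doxycycline in cells with stable M3 receptor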
Details: Fluo-4 calcium flux, at 10 µM, triggered by carbachol at its EC20
Among all 310,000 compounds or so, about 1,400 (0.45%) were called active.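 The calls were made as follows: active = B-score, a plate-corrected calcium signal, over three deviations above library mean, with baseline fluorescence within five deviations of library mean; inactive = the rest.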 This is one part of a sample in which actives are shown more often than they occur.
The reply should be one of these categories: True for active, False for inactive

*Q* GET /call?item= `CN(c1ccccc1)S(=O)(=O)c1cc(C(=O)Nc2nc3ccccc3[nH]2)ccc1Cl` returns the recorded outcome of this test.
*A* False

*Q* Same question, O=C1c2ccccc2NC(c2ccc(-c3cccc(Cl)c3)o2)N1O (stereo not drawn) this time
*A* True

*Q* Same question, CCCCN1C(=O)CC(N2CCOCC2)C1=O (stereo not drawn) this time
*A* False

*Q* Same question, `CCCCOc1ccc(C(=O)N/C(=C/C=C/c2ccccc2)C(=O)N2CCOCC2)cc1` this time
*A* False

*Q* Same question, `COc1cccc(NC(C)=[N+](C)CCNS(=O)(=O)c2ccc(Cl)cc2)c1` this time
*A* False

*Q* Same question, `O=C(OCc1cc(Cl)ccc1OC(F)F)c1cccnc1` this time
*A* False

*Q* Same question, `CC(=O)c1nn(-c2cccc(C(F)(F)F)c2)c(=O)[nH]c1=O` this time
*A* False

*Q* Same question, CC(C)=N/N=C1/NC(=O)C(Cc2ccccc2)S1 (stereo not drawn) this time
*A* False

*Q* Same question, Cc1ccc(N(C(=O)c2ccc(CN3CCOCC3)o2)C(C(=O)NCCC(C)C)c2cccs2)c(C)c1 (stereo not drawn) this time
*A* False

*Q* Same question, `CCOC(=O)c1ccc(NC(=O)c2cccnc2)cc1` this time
*A* False

*Q* Same question, `CCc1nnc(NS(=O)(=O)c2ccc(NS(=O)(=O)c3ccccc3)cc2)s1` this time
*A* False

*Q* Same question, `COCCc1nn2c(=O)cc(COC(=O)c3cc(OC)c(OC)c(OC)c3)nc2s1` this time
*A* False

*Q* Same question, CN(C)c1ccc(CNC2C3CC4CC(C3)CC2C4)cc1 (stereo not drawn) this time
*A* False

*Q* Same question, `O=c1c(-c2cccc(Cl)c2)c[nH]n1-c1ccccc1` this time
*A* False

*Q* Same question, `O=C(CN1C(=O)NC2(CCCCCC2)C1=O)NCc1cccs1` this time
*A* False

*Q* Same question, O=C1NC(c2cccc(Cl)c2)Nc2ccccc21 (stereo not drawn) this time
*A* False

*Q* Same question, `CS/C(=C\[N+](=O)[O-])Nc1ccc(C)cc1` this time
*A* False

*Q* Same question, `O=C(O)CCC(=O)N(Cc1ccccc1)Cc1ccccc1` this time
*A* False

*Q* Same question, O=C(O)C1C2C=CC(C2)C1C(=O)NCc1ccccc1 (stereo not drawn) this time
*A* False

*Q* Same question, `Cc1nn2c(=O)cc(COC(=O)c3ccc(NC(=O)C(C)(C)C)cc3)nc2s1` this time
*A* True

*Q* Same question, `Brc1ccc(-c2csc(N/N=C/c3ccc4c(c3)OCO4)n2)cc1` this time
*A* False

*Q* Same question, `CCc1nnc(NS(=O)(=O)c2ccc(NC(=S)NC(=O)/C=C/c3cccs3)cc2)s1` this time
*A* False

*Q* Same question, CCCN(CCc1ccccc1)C1CCc2c(O)cccc2C1 (stereo not drawn) this time
*A* False
